Assay: Half life in dog at 2 mg/kg, iv
Assay type: ADME, organism-based, Canis lupus familiaris
Design: dose 2 mg/kg, route intravenous
Settings: in vivo
assay.endpoint: half-life
# answer = value followed by unit

Prompt: Record request: half-life value, item "Cc1cc2cc(N=C(NC(=O)c3ccc(C(=O)N(C)C)nc3)N[C@H]3CCCCN(CC(=O)N4CCCC4)C3=O)ccc2o1"
Completion: 516 min

----------
Assay: Cmax in rat at 10 mg/kg, po
Format: ADME, organism-based
Set-up: dose 10 mg/kg, route oral
Settings: in vivo
assay.endpoint: Cmax (ng/mL)
Use ng/mL as the unit, but write only the number.

Prompt: Record request: Cmax value, item "Cc1cc2cc(N=C(NC(=O)c3ccc(C(=O)N(C)C)nc3)N[C@H]3CCCCN(CC(=O)N4CCCC4)C3=O)ccc2o1"
Completion: 2200
